- System: Human alphaherpesvirus 3
- ASSAY_OVERVIEW: Antiviral activity against Varicella-Zoster virus 07/1 strain
- Type: functional, organism-based
- CONDITION_DESCRIPTION: Human alphaherpesvirus 3, 07/1
pEC50: −log10 of the molar value.
VALUE_KIND: pEC50

// Input: `CCCCCCCCCCC#Cc1cc2cn(C)c(=O)nc2o1` . Output its pEC50 only. < 3.82

// Input: `CCCCCCC#Cc1cc2cn([C@@H]3O[C@H](CO)[C@@H](O)[C@@H]3O)c(=O)nc2o1` . Output its pEC50 only. 4.47

// Input: `CCCCCCCCC#Cc1cc2cn(C)c(=O)nc2o1` . Output its pEC50 only. < 4.15

// Input: `CCCCCCCCCCC#Cc1cc2cn([C@@H]3O[C@H](CO)[C@@H](O)[C@H]3O)c(=O)nc2o1` . Output its pEC50 only. 5.34

// Input: `CCCCCCC#Cc1cc2cn([C@H]3C[C@H](O)[C@@H](CO)O3)c(=O)nc2o1` . Output its pEC50 only. 4.60

// Input: `CCCCCCC#Cc1cc2cn(C)c(=O)nc2o1` . Output its pEC50 only. < 4.11

// Input: `CCCCC#Cc1cc2cn(C)c(=O)nc2o1` . Output its pEC50 only. < 4.06

// Input: `CCCCCCCCCCC#Cc1cc2cn([C@@H]3O[C@H](CO)[C@@H](O)[C@@H]3O)c(=O)nc2o1` . Output its pEC50 only. < 4.92

// Input: O=c1[nH]c(=O)n([C@H]2C[C@H](O)[C@@H](CO)O2)cc1/C=C/Br [BRIVUDINE] . Output its pEC50 only. ≤ 4.00

// Input: `CCCCCCCCC#Cc1cc2cn([C@@H]3O[C@H](CO)[C@@H](O)[C@H]3O)c(=O)nc2o1` . Output its pEC50 only. ≤ 4.92

###

- System: HEL
- ASSAY_OVERVIEW: Cytotoxic activity against cultured human embryonic lung (HEL) cells
- Format: functional
VALUE_KIND: CC50

// Input: `CCCCC#Cc1cc2cn([C@@H]3O[C@H](CO)[C@@H](O)[C@@H]3O)c(=O)nc2o1` . Output its CC50 only. > 144 µM

// Input: `CCCCCCC#Cc1cc2cn(C)c(=O)nc2o1` . Output its CC50 only. > 194 µM

// Input: `CCCCCCCCCCC#Cc1cc2cn([C@@H]3O[C@H](CO)[C@@H](O)[C@@H]3O)c(=O)nc2o1` . Output its CC50 only. 116 µM

// Input: `CCCCCCCCC#Cc1cc2cn(C)c(=O)nc2o1` . Output its CC50 only. > 175 µM

// Input: `Nc1nc2c(ncn2COCCO)c(=O)[nH]1` . Output its CC50 only. > 889 µM

// Input: `CCCCCCCCC#Cc1cc2cn([C@H]3C[C@H](O)[C@@H](CO)O3)c(=O)nc2o1` . Output its CC50 only. 77 µM

// Input: `CCCCCCC#Cc1cc2cn([C@H]3C[C@H](O)[C@@H](CO)O3)c(=O)nc2o1` . Output its CC50 only. 138 µM

// Input: `CCCCCCCCCCC#Cc1cc2cn([C@@H]3O[C@H](CO)[C@@H](O)[C@H]3O)c(=O)nc2o1` . Output its CC50 only. 44 µM

// Input: `CCCCC#Cc1cc2cn(C)c(=O)nc2o1` . Output its CC50 only. > 217 µM

// Input: `CCCCCCCCC#Cc1cc2cn([C@@H]3O[C@H](CO)[C@@H](O)[C@@H]3O)c(=O)nc2o1` . Output its CC50 only. > 124 µM

// Input: `CCCCCCC#Cc1cc2cn([C@@H]3O[C@H](CO)[C@@H](O)[C@@H]3O)c(=O)nc2o1` . Output its CC50 only. > 53 µM

// Input: `O=c1[nH]c(=O)n([C@H]2C[C@H](O)[C@@H](CO)O2)cc1/C=C/Br` . Output its CC50 only. > 150 µM

// Input: `CCCCCCCCCCC#Cc1cc2cn(C)c(=O)nc2o1` . Output its CC50 only. > 150 µM

// Input: `CCCCCCCCCCC#Cc1cc2cn([C@H]3C[C@H](O)[C@@H](CO)O3)c(=O)nc2o1` . Output its CC50 only. 36 µM

// Input: `CCCCC#Cc1cc2cn([C@@H]3O[C@H](CO)[C@@H](O)[C@H]3O)c(=O)nc2o1` . Output its CC50 only. > 144 µM

// Input: `CCCCCCC#Cc1cc2cn([C@@H]3O[C@H](CO)[C@@H](O)[C@H]3O)c(=O)nc2o1` . Output its CC50 only. > 133 µM

// Input: `Nc1nc2c(ncn2COC(CO)CO)c(=O)[nH]1` . Output its CC50 only. > 197 µM

// Input: `CCCCCCCCC#Cc1cc2cn([C@@H]3O[C@H](CO)[C@@H](O)[C@H]3O)c(=O)nc2o1` . Output its CC50 only. 62 µM

// Input: `CCCCC#Cc1cc2cn([C@H]3C[C@H](O)[C@@H](CO)O3)c(=O)nc2o1` . Output its CC50 only. > 150 µM
